# Tested on: Staphylococcus epidermidis IFO 12993
quantity: MIC (µg/mL)

Some solved entries appear below for comparison.
1. Cc1c(-c2ccc(N)c(F)c2)ccn2c(=O)c(C(=O)O)cc(C3CC3)c12
0.016
2. CCOC(=O)c1cc(C2CC2)c2c(C)c(-c3cc(F)c(CN)s3)ccn2c1=O
0.031
3. Cc1c(-c2ccc(N)cc2)ccn2c(=O)c(C(=O)O)cc(C3CC3)c12
0.008
4. Cc1c(-c2cccc(N)c2)ccn2c(=O)c(C(=O)O)cc(C3CC3)c12
0.016

(A) CC(=NO)c1ccc(-c2ccn3c(=O)c(C(=O)O)cc(C4CC4)c3c2C)cc1
(B) Cc1c(-c2cccc(CN3CCNCC3)c2)ccn2c(=O)c(C(=O)O)cc(C3CC3)c12
(C) CC(=O)c1ccc(-c2ccn3c(=O)c(C(=O)O)cc(C4CC4)c3c2C)cc1
Order the entries by their reported MIC, beginning at the minimum. // format: requested-order list of labels
A, C, B

(P) Cc1ccc(-c2ccn3c(=O)c(C(=O)O)cc(C4CC4)c3c2C)cc1
(Q) Cc1c(-c2ccc(NCCO)cc2)ccn2c(=O)c(C(=O)O)cc(C3CC3)c12
Hi, I'm comparing two records. Which one has the lower MIC, P or Q ? Answer = label.
Q

(A) Cc1c(-c2ccc(CN)cc2)ccn2c(=O)c(C(=O)O)cc(C3CC3)c12
(B) Cc1c(-c2cccc(CN(C)C)c2)ccn2c(=O)c(C(=O)O)cc(C3CC3)c12
(C) COc1ccc(-c2ccn3c(=O)c(C(=O)O)cc(C4CC4)c3c2C)cc1CN
Order the entries by their reported MIC, beginning at the minimum. // format: requested-order list of labels
C, A, B
(C: 0.031 µg/mL, A: 0.063 µg/mL, B: 0.125 µg/mL)

(A) COc1ccc(-c2ccn3c(=O)c(C(=O)O)cc(C4CC4)c3c2C)cn1
(B) Cc1c(-c2ccc(N)nc2)ccn2c(=O)c(C(=O)O)cc(C3CC3)c12
Which shows the larger MIC value: A or B ? Answer = label.
B

====

# MIC per entry for Bacteroides fragilis GAI 0675
quantity: MIC (µg/mL)

1. Cc1ccc(-c2ccn3c(=O)c(C(=O)O)cc(C4CC4)c3c2C)cc1 [Example 31]
0.25
2. COc1ccc(-c2ccn3c(=O)c(C(=O)O)cc(C4CC4)c3c2C)cc1CN [Example 121]
0.5
3. Cc1ccc(-c2ccn3c(=O)c(C(=O)O)cc(C4CC4)c3c2C)cc1N [Example 63]
0.063
4. Cc1c(-c2ccc(NCCO)cc2)ccn2c(=O)c(C(=O)O)cc(C3CC3)c12 [Example 46]
0.125
5. CC(=O)c1ccc(-c2ccn3c(=O)c(C(=O)O)cc(C4CC4)c3c2C)cc1 [Example 28]
0.125
6. Cc1c(-c2cccc(CN3CCNCC3)c2)ccn2c(=O)c(C(=O)O)cc(C3CC3)c12 [Example 119]
1
7. Cc1c(-c2ccc(CN)cc2)ccn2c(=O)c(C(=O)O)cc(C3CC3)c12 [Example 24]
0.25
8. Cc1c(-c2ccc(C#N)cc2)ccn2c(=O)c(C(=O)O)cc(C3CC3)c12 [Example 36]
0.125

(a) Cc1c(-c2cccc(CN(C)C)c2)ccn2c(=O)c(C(=O)O)cc(C3CC3)c12 [Example 117]
(b) Cc1c(-c2ccc(CN)o2)ccn2c(=O)c(C(=O)O)cc(C3CC3)c12 [Example 113]
(c) Cc1c(-c2ccc(N)cc2)ccn2c(=O)c(C(=O)O)cc(C3CC3)c12 [Example 27]
(d) CC(=NO)c1ccc(-c2ccn3c(=O)c(C(=O)O)cc(C4CC4)c3c2C)cc1 [Example 38]
(e) CCOC(=O)c1cc(C2CC2)c2c(C)c(-c3cc(F)c(CN)s3)ccn2c1=O [Example 111]
Order the entries by their reported MIC, beginning at the minimum. // format: requested-order list of labels
c, d, e, a, b

====

# Test system: Staphylococcus aureus IID 803(Smith)
quantity: MIC (µg/mL)

Some solved entries appear below for comparison.
1) Cc1c(-c2cccc(CN3CCNCC3)c2)ccn2c(=O)c(C(=O)O)cc(C3CC3)c12
0.063
2) Cc1c(-c2ccc(N)nc2)ccn2c(=O)c(C(=O)O)cc(C3CC3)c12
0.063
3) CC(=O)c1ccc(-c2ccn3c(=O)c(C(=O)O)cc(C4CC4)c3c2C)cc1
0.008
4) COc1ccc(-c2ccn3c(=O)c(C(=O)O)cc(C4CC4)c3c2C)cc1CN
0.016
5) C[C@H]1COc2c(N3CCN(C)CC3)c(F)cc3c(=O)c(C(=O)O)cn1c23 [Levofloxacin, reference compound]
0.125

(P) CCOC(=O)c1cc(C2CC2)c2c(C)c(-c3cc(F)c(CN)s3)ccn2c1=O
(Q) Cc1ccc(-c2ccn3c(=O)c(C(=O)O)cc(C4CC4)c3c2C)cc1
Which shows the larger MIC value: P or Q ? Answer = label.
P
(P: 0.016 µg/mL, Q: 0.008 µg/mL)

====

# Test system: Bacteroides thetaiotaomicron ATCC 29741
# test_protocol: in vitro antibacterial activity on anaerobic bacteria (MIC)
# Format: cell-based
# condition_context: ATCC29741; Bacteroides thetaiotaomicron ATCC 29741, anaerobic; read-out: Antimicrobial spectrum MIC
quantity: MIC (µg/mL)

Some solved entries appear below for comparison.
1. CCOC(=O)c1cc(C2CC2)c2c(C)c(-c3cc(F)c(CN)s3)ccn2c1=O [Example 111]
0.5
2. CC(=NO)c1ccc(-c2ccn3c(=O)c(C(=O)O)cc(C4CC4)c3c2C)cc1 [Example 38]
0.25
3. Cc1c(-c2ccc(N)cc2)ccn2c(=O)c(C(=O)O)cc(C3CC3)c12 [Example 27]
0.125

(I) Cc1c(-c2ccc(C#N)cc2)ccn2c(=O)c(C(=O)O)cc(C3CC3)c12 [Example 36]
(II) Cc1c(-c2cccc(CN(C)C)c2)ccn2c(=O)c(C(=O)O)cc(C3CC3)c12 [Example 117]
Hi, I'm comparing two records. Which one has the lower MIC, I or II ? Answer = label.
I

====

# MIC per entry for Staphylococcus aureus IID 803(Smith)
quantity: MIC (ng/mL)

Some solved entries appear below for comparison.
1. Cc1ccc(-c2ccn3c(=O)c(C(=O)O)cc(C4CC4)c3c2C)cc1N [Example 63]
8
2. COc1ccc(-c2ccn3c(=O)c(C(=O)O)cc(C4CC4)c3c2C)cn1 [Example 32]
8
3. Cc1c(-c2ccc(C#N)cc2)ccn2c(=O)c(C(=O)O)cc(C3CC3)c12 [Example 36]
8

(1) Cc1c(-c2cccc(N)c2)ccn2c(=O)c(C(=O)O)cc(C3CC3)c12 [Example 26]
(2) Cc1c(-c2cccc(CN(C)C)c2)ccn2c(=O)c(C(=O)O)cc(C3CC3)c12 [Example 117]
(3) Cc1c(-c2ccc(CN)cc2)ccn2c(=O)c(C(=O)O)cc(C3CC3)c12 [Example 24]
Could you please sort these 3 entries by MIC from high to low? // format: requested-order list of labels
2, 3, 1
(2: 63 ng/mL, 3: 31 ng/mL, 1: 8 ng/mL)

====

# Test system: Bacillus subtilis JCM 2499
quantity: MIC

Some solved entries appear below for comparison.
1. Cc1c(-c2ccc(CN)cc2)ccn2c(=O)c(C(=O)O)cc(C3CC3)c12
0.016 µg/mL
2. CC(=O)c1ccc(-c2ccn3c(=O)c(C(=O)O)cc(C4CC4)c3c2C)cc1
≤ 0.004 µg/mL
3. Cc1c(-c2ccc(C#N)cc2)ccn2c(=O)c(C(=O)O)cc(C3CC3)c12
≤ 0.004 µg/mL

State, for Bacillus subtilis JCM 2499, measured MIC of the compound listed here: Cc1c(-c2ccc(N)cc2)ccn2c(=O)c(C(=O)O)cc(C3CC3)c12
≤ 0.004 µg/mL

State, for Bacillus subtilis JCM 2499, measured MIC of the compound listed here: Cc1c(-c2ccc(NCCO)cc2)ccn2c(=O)c(C(=O)O)cc(C3CC3)c12
≤ 0.004 µg/mL

State, for Bacillus subtilis JCM 2499, measured MIC of the compound listed here: COc1ccc(-c2ccn3c(=O)c(C(=O)O)cc(C4CC4)c3c2C)cn1
≤ 0.004 µg/mL

State, for Bacillus subtilis JCM 2499, measured MIC of the compound listed here: Cc1ccc(-c2ccn3c(=O)c(C(=O)O)cc(C4CC4)c3c2C)cc1
≤ 0.004 µg/mL

State, for Bacillus subtilis JCM 2499, measured MIC of the compound listed here: Cc1c(-c2cccc(N)c2)ccn2c(=O)c(C(=O)O)cc(C3CC3)c12
≤ 0.004 µg/mL

State, for Bacillus subtilis JCM 2499, measured MIC of the compound listed here: C[C@H]1COc2c(N3CCN(C)CC3)c(F)cc3c(=O)c(C(=O)O)cn1c23 [Levofloxacin, reference compound]
0.031 µg/mL

State, for Bacillus subtilis JCM 2499, measured MIC of the compound listed here: Cc1c(-c2cccc(CN(C)C)c2)ccn2c(=O)c(C(=O)O)cc(C3CC3)c12
0.031 µg/mL

State, for Bacillus subtilis JCM 2499, measured MIC of the compound listed here: Cc1c(-c2ccc(N)nc2)ccn2c(=O)c(C(=O)O)cc(C3CC3)c12
0.016 µg/mL

State, for Bacillus subtilis JCM 2499, measured MIC of the compound listed here: CC(=NO)c1ccc(-c2ccn3c(=O)c(C(=O)O)cc(C4CC4)c3c2C)cc1
≤ 0.004 µg/mL

State, for Bacillus subtilis JCM 2499, measured MIC of the compound listed here: COc1ccc(-c2ccn3c(=O)c(C(=O)O)cc(C4CC4)c3c2C)cc1CN
≤ 0.004 µg/mL

State, for Bacillus subtilis JCM 2499, measured MIC of the compound listed here: Cc1c(-c2cccc(CN3CCNCC3)c2)ccn2c(=O)c(C(=O)O)cc(C3CC3)c12
0.016 µg/mL

State, for Bacillus subtilis JCM 2499, measured MIC of the compound listed here: Cc1c(-c2ccc(CN)o2)ccn2c(=O)c(C(=O)O)cc(C3CC3)c12
0.016 µg/mL

State, for Bacillus subtilis JCM 2499, measured MIC of the compound listed here: Cc1ccc(-c2ccn3c(=O)c(C(=O)O)cc(C4CC4)c3c2C)cc1N
≤ 0.004 µg/mL
